Every entry's value here was drawn from patent US20230265151A1.

The reader will find reported Ki values listed item by item below.
- SYSTEM NAME: T1, human GLP-1 receptor (human, UniProt P43220 24-463)
- T1 construct: whole, on cells; also called hGLP-1R; human glucagon-like peptide-1 receptor
- EXPERIMENTAL PROTOCOL: SPA competition vs [125I]-GLP-1, hGLP-1R membranes
Entry rule: numbers only, all in nM.

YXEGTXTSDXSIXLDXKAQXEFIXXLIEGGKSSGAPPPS (Aib2, αMeF(2F)6, 4Pal10, αMeL13, Orn16, K17(Z1), Aib20, D-Glu24, αMeY25, K31(Z1), C-term NH2; Z1=AEEA2-(γ-Glu)-CO-(CH2)12-CO2H) : 2.33
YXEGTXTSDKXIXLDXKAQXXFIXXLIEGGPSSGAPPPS (Aib2, αMeF(2F)6, K10(Z1), Aib11, αMeL13, Orn16, K17(Z1), Aib20, Orn21, D-Glu24, αMeY25, C-term NH2; Z1=AEEA2-(γ-Glu)-CO-(CH2)10-CH3) : 0.167

Ask: Query: Ki; subject: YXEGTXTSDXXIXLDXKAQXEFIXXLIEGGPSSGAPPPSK (Aib2, αMeF(2F)6, 4Pal10, Aib11, αMeL13, Orn16, K17(Z1), Aib20, D-Glu24, αMeY25, K40(Z1), C-term NH2; Z1=AEEA-(γ-Glu)-(10-(4-carboxyphenoxy)decanoyl))
Reply: 0.765
